B1: Caulobacter ParB omega fusion; a variant is named by its letters at X, in order, B8GW30 (parent)
chain: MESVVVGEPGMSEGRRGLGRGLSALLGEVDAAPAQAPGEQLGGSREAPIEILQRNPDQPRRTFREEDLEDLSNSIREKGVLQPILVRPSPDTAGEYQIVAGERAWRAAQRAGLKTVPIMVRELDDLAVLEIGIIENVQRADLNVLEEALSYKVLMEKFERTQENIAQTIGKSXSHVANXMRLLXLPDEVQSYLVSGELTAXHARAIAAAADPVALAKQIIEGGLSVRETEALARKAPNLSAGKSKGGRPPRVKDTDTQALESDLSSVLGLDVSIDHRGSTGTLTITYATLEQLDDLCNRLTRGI

# Variants of: B1
# procedure-details: one-hybrid fitness for binding parS DNA (scaled: cognate 1, non-cognate 0); higher = stronger binding
# measurement-parameters: with parS DNA site
Whole data set: some 81,000 sequences, median “one-hybrid fitness for binding parS DNA” near -0.17, cut for the highest 2% near 0.51. The sample holds the highest values, similar sequences and a random draw of the others, so the mix is not that of the screen.
measurement-type: one-hybrid fitness for binding parS DNA

// below: answered variants
RFMN : 0.242
GPYM : ≤ 0.2
HQTD : ≤ 0.2
RRSQ : ≤ 0.2
RSRH : 0.232

Need one-hybrid fitness for binding parS DNA of RRSK , thanks. ≤ 0.2

Field request: one-hybrid fitness for binding parS DNA | item: RWCF ≤ 0.2

Suppose we examine the variant RKMP ; what one-hybrid fitness for binding parS DNA value has been reported? ≤ 0.2
